- Test System: MBP-IKKβ (701–745) (Homo sapiens, UniProt O14920)
- Construct: made in house; host or cells: E. coli BL21(DE3)
- Sequence (O14920 701-745): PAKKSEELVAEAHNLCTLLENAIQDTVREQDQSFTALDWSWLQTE
- Experiment Notes: SPR affinity assay on immobilized MBP-IKKβ
- Assay type: binding
- Condition Context: approximate summary value in discussion (SPR and MST); read-out: KD for either IKKβ or NEMO alone
Property Measured: Kd

Data request, read-out Kd, for CC(C)=CC[C@@H](O)C1=CC(=O)c2c(O)ccc(O)c2C1=O
~10 µM

====

- System: colorectal cancer cells (LoVo, RKO, SW620, HCT15, HCT116)
- Experiment Notes: CCK-8 cell viability assay, colorectal cancer cells
- Assay type: cell-based, human
- Condition Context: Homo sapiens; 48 h, CCK-8; range over cell lines; read-out: IC50 for inhibition of proliferation in colorectal cancer cells
Property Measured: IC50

Data request, read-out IC50, for CC(C)=CC[C@@H](O)C1=CC(=O)c2c(O)ccc(O)c2C1=O [SHK, Shikonin]
0.6 to 2.5 µM

Data origin: paper PMC8904520
